Target: rat MASP-2 (in rat serum) (rat, UniProt Q9JJS8 20-685)
Sequence (Q9JJS8 20-685 limits assumed): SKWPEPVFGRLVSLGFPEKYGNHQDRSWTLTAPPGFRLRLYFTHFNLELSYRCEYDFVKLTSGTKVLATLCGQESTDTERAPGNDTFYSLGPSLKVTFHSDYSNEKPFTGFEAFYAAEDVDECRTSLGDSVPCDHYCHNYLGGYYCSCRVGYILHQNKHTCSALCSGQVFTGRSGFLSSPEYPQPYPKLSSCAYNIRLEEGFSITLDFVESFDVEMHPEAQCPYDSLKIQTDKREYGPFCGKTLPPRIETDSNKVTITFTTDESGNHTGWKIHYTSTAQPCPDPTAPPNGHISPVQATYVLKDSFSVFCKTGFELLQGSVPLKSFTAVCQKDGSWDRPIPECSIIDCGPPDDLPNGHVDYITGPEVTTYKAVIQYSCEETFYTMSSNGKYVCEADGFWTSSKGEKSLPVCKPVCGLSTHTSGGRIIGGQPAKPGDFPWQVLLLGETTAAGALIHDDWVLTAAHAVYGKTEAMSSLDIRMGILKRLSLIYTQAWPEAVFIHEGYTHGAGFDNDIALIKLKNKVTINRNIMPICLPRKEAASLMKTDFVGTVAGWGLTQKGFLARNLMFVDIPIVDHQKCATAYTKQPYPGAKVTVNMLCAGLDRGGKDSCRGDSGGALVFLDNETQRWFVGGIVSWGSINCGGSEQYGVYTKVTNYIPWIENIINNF
Assay: cell-based or functional assay
Where no end group is shown, it is not given here.
testReadout: IC50, lectin pathway C4 deposition, rat serum (nM)
Please state the figure in nM; there is no need to write the unit.

q: Given EVO22 (designed binder, not fully specified; cysteine pairing not given here, Modified TFPI-D2 Kunitz domain; made as m1) KPDFCFLENDPGPCRALKRRYFYNNQTKQCERFYYGGCLGNMNNFVTLEECKNICEDG , state its recorded IC50, lectin pathway C4 deposition, rat serum.
a: 9.9

q: Given EVO23a (designed binder) KPDFCFLEEDPGPCRALKRRYFYNNQTKQCERFYYGGCFGNMNNFVTLEECKNICEDG , state its recorded IC50, lectin pathway C4 deposition, rat serum.
a: 14.1

q: Given EVO2 (designed binder, not fully specified; ends and bridges not checked, Modified Kunitz domain TFPI-D2 of human TFPI-1; recombinant from E. coli, freed from a His6-S100A4 fusion by TEV protease; also called TFMI-2b) KPDFCFLEEDPGPCRAVKRRYFYNNQTKQCERFKYGGCLGNMNNFETLEECKNICEDG , state its recorded IC50, lectin pathway C4 deposition, rat serum.
a: 106

q: Given EVO21c (designed binder, not fully specified; cysteine pairing not given here, Modified TFPI-D2 Kunitz domain; made as m1) KPDFCFLEEDPGPCRALKRRYFYNNQTKQCERFGYGGCFGNMNNFVTLEECKNICEDG , state its recorded IC50, lectin pathway C4 deposition, rat serum.
a: 12.4

q: Given EVO21b (designed binder, not fully specified; cysteine pairing not given here) KPDFCFLEEDPGPCRALKRRYFYNNQTKQCERFGYGGCLGNMNNFVTLEECKNICEDG , state its recorded IC50, lectin pathway C4 deposition, rat serum.
a: 7.2

q: Given EVO221 (designed binder, not fully specified; cysteine pairing not given here, Modified TFPI-D2 Kunitz domain; made as m1) KPDFCFLENDPGVCRAAAVRYFYNNQTKQCERFYYGGCLGNMNNFVTLEECKNICEDG , state its recorded IC50, lectin pathway C4 deposition, rat serum.
a: 11

q: Given EVO224 (designed binder, not fully specified; cysteine pairing not given here, Modified TFPI-D2 Kunitz domain; made as m1) KPDFCFLENDPGVCRALAVRYFYNNQTKQCERFYYGGCLGNMNNFVTLEECKNICEDG , state its recorded IC50, lectin pathway C4 deposition, rat serum.
a: 29.6

q: Given EVO24 (designed binder, not fully specified; cysteine pairing not given here, Modified TFPI-D2 Kunitz domain; made as m1) KPDFCFLENDPGPCRALKRRYFYNNQTKQCERFYYGGCLGNMNNFETLEECKNICEDG , state its recorded IC50, lectin pathway C4 deposition, rat serum.
a: 6.6

q: Given EVO223 (designed binder, Modified TFPI-D2 Kunitz domain; made as m1) KPDFCFLENDPGPCRAAAVRYFYNNQTKQCERFYYGGCLGNMNNFVTLEECKNICEDG , state its recorded IC50, lectin pathway C4 deposition, rat serum.
a: 12

q: Given EVO214 (designed binder, not fully specified; ends and bridges not checked, Modified TFPI-D2 Kunitz domain; made as m1) KPDFCFLENDPGPCRALKLRYFYNNQTKQCERFGYGGCLGNMNNFVTLEECKNICEDG , state its recorded IC50, lectin pathway C4 deposition, rat serum.
a: 11.2

q: Given EVO213 (designed binder, Modified TFPI-D2 Kunitz domain; made as m1) KPDFCFLENDPGPCRAAKRRYFYNNQTKQCERFGYGGCLGNMNNFVTLEECKNICEDG , state its recorded IC50, lectin pathway C4 deposition, rat serum.
a: 88.7

q: Given EVO2a (designed binder, not fully specified; cysteine pairing not given here, Modified TFPI-D2 Kunitz domain; made as m1) KPDFCFLENDPGPCRAVKRRYFYNNQTKQCERFKYGGCLGNMNNFETLEECKNICEDG , state its recorded IC50, lectin pathway C4 deposition, rat serum.
a: 213

q: Given EVO25 (designed binder, not fully specified; cysteine pairing not given here, Modified TFPI-D2 Kunitz domain; made as m1) KPDFCFLENDPGPCRALKRRYFYNNQTKQCERFYYGGCFGNMNNFETLEECKNICEDG , state its recorded IC50, lectin pathway C4 deposition, rat serum.
a: 15

q: Given EVO23 (designed binder, not fully specified; cysteine pairing not given here, Modified TFPI-D2 Kunitz domain; made as m1) KPDFCFLENDPGPCRALKRRYFYNNQTKQCERFYYGGCFGNMNNFVTLEECKNICEDG , state its recorded IC50, lectin pathway C4 deposition, rat serum.
a: 8.1

q: Given EVO2c (designed binder, not fully specified; cysteine pairing not given here, Modified TFPI-D2 Kunitz domain; made as m1) KPDFCFLEEDPGPCRAVKRRYFYNNQTKQCERFYYGGCLGNMNNFETLEECKNICEDG , state its recorded IC50, lectin pathway C4 deposition, rat serum.
a: 34.3

q: Given EVO22d (designed binder) KPDFCFLEEDPGPCRAAKRRYFYNNQTKQCERFYYGGCFGNMNNFVTLEECKNICEDG , state its recorded IC50, lectin pathway C4 deposition, rat serum.
a: 10.4

q: Given EVO22b (designed binder, not fully specified; cysteine pairing not given here, Modified TFPI-D2 Kunitz domain; made as m1) KPDFCFLENDPGPCRALARRYFYNNQTKQCERFYYGGCLGNMNNFVTLEECKNICEDG , state its recorded IC50, lectin pathway C4 deposition, rat serum.
a: 9.7
